Molecular target: Prostaglandin D2 receptor (Rattus norvegicus, UniProt Q9R261)
Sequence (Q9R261 whole entry): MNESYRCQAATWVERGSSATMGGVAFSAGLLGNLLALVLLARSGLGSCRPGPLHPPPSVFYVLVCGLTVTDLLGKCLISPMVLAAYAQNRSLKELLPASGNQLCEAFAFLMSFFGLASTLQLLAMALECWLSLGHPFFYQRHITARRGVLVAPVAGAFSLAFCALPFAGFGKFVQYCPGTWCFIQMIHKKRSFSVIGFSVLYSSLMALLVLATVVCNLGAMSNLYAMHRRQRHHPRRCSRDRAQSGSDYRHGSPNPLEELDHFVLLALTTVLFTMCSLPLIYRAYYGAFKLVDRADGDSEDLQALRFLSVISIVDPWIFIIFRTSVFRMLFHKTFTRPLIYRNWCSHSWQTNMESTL
observable: Ki (µM)
The figure you give is taken to be in µM; do not add the unit.

>>> print(df.to_string())
                                   compound  units_text  experimental_value
0  CCCCCC(O)CC=C1C(=O)C=CC1CC=CCCCC(=O)O (centres undefined) [CAS_41598-07-6]          µM               0.019
1  CCCCC[C@H](O)/C=C/[C@H]1OC(O)C[C@H](O)[C@@H]1C/C=C\CCCC(=O)O (some centres undefined) [THROMBOXANE B2]          µM                 4.2
2  CCCCC[C@H](O)/C=C/[C@H]1[C@H](O)CC(=O)[C@@H]1C/C=C\CCCC(=O)O [DINOPROSTONE]          µM                2.95

Which value of Ki has been reported for CCCCCC(O)C=CC1C(=O)CC(O)C1CCCCCCC(=O)O (centres undefined) [NSC_205449] in the records? 0.523

* * *

List of Ki tested on Prostaglandin D2 receptor (Rattus norvegicus).

Which value of Ki has been reported for CCCCC[C@H](O)/C=C/[C@@H]1[C@@H](CC(=O)CCCCC(=O)O)[C@@H](O)C[C@H]1O [6-KETO-PROSTAGLANDIN F1ALPHA] in the records? > 10 µM

Which value of Ki has been reported for CCCCCC(O)C=CC1=C(CC=CCCCC(=O)O)C(=O)CC1 (stereo not drawn) [NSC_5280881] in the records? > 10 µM

Which value of Ki has been reported for CCCCC[C@H](O)C=C[C@H]1C=CC(=O)[C@@H]1C/C=C\CCCC(=O)O in the records? > 10 µM
